Give measured GI50 for each item. Keep answers brief.
- tgt: Ba/F3-FL-TYK2-P760L cells (Homo sapiens, UniProt P29597, P760L, cells depend on it)
- Construct: BaF3-FL-T2P760L (nM)
- Sequence (P29597 whole entry P760L): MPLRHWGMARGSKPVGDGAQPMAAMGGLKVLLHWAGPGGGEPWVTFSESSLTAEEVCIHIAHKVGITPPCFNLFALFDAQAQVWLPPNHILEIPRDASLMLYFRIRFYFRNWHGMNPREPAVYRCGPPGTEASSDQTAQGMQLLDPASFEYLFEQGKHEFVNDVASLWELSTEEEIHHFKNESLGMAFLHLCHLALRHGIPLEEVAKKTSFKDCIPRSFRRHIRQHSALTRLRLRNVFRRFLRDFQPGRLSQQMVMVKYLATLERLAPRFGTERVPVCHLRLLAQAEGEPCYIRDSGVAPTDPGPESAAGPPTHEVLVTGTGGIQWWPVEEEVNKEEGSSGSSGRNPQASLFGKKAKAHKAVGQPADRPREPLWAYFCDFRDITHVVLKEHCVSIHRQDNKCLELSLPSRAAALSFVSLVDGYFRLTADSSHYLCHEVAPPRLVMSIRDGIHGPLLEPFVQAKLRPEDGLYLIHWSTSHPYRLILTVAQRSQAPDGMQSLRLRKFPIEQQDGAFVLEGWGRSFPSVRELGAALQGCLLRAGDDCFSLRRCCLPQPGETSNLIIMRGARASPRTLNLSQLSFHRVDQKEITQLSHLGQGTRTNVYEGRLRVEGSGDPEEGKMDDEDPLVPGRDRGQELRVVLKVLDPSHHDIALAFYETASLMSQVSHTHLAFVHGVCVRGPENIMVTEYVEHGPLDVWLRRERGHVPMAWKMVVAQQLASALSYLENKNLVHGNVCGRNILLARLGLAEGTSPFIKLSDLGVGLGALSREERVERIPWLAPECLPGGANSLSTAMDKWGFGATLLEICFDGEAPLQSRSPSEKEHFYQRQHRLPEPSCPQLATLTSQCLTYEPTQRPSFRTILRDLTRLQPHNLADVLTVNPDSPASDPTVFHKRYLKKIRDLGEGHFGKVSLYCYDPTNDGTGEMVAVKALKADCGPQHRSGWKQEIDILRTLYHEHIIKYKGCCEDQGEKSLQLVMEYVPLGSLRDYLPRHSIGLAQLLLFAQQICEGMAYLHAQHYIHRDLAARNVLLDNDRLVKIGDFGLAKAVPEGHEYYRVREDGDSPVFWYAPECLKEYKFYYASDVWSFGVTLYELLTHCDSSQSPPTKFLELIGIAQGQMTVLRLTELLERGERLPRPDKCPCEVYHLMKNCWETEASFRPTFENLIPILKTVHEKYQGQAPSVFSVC
- assay_summary: Anti-proliferative assay, Ba/F3-FL-TYK2-P760L cells (Cell-Titer Glo)
- Assay type: cell-based
- details: 72 h, read-out: BaF3-FL-T2P760L IC50
- Experimental: Anti-Proliferative Assay Dimerization domain of Tel protein fused with JAK kinase domain was permanently transduced into Ba/F3 cells, whose proliferation is dependent on JAK activity in the absence of IL-3 induction. […] The viability was measured by cellular ATP determination using the Cell-Titer Glo luciferase reagent (Promega). The Luminescence value was recorded by a multi-label reader Envision (PerkinElmer).
Give bare numbers, in nM.

Examples with their reported GI50 follow.
[2H]C([2H])([2H])NC(=O)c1nnc2cc1Nc1cc(cc(-c3ncn(C)n3)c1OC)COCc1nc(ccc1F)N2 ... 44.4
[2H]C([2H])([2H])NC(=O)c1cnc2cc1Nc1cc(cc(-c3ncn(CC)n3)c1OC)COCc1nc(ccc1F)N2 ... 142
[2H]C([2H])([2H])NC(=O)c1cnc(NC(=O)C2CC2)cc1Nc1ccc2cnn(C3CC3)c2c1OC ... 108
[2H]C([2H])([2H])NC(=O)c1cnc(Nc2ccc(F)cn2)cc1Nc1ncc2cnn(CC)c2c1OC ... 41.7
CNC(=O)c1nnc(NC(=O)C2CC2)cc1Nc1cccc2ccn(C)c(=O)c12 ... 1390

Give one value of GI50 per listed compound.
1. CCn1ncc2ccc(Nc3cc(NC(=O)C4CC4)ncc3C(=O)NC)c(OC)c21
2. CNC(=O)c1cnc(NC(=O)C2CC2)cc1Nc1ccc2nn3c(c2c1OC)CCC3

Key:
29.3
2900
